Hello, the source for this data is patent US20260274895A1, in case you need it.

- experimental conditions: PAMPA, PAMPA_Papp_Avg (apparent permeability)
Where a SMILES comes first, the peptide text is derived from it. [ ]: non-standard residue; d: D form. NMeF = CN[C@@H](Cc1ccccc1)C(=O)O; NMeL = CN[C@@H](CC(C)C)C(=O)O; dNMeL = CN[C@H](CC(C)C)C(=O)O; NMeV = CN[C@H](C(=O)O)C(C)C; dNMeA = CN[C@H](C)C(=O)O
attribute measured: Papp (×10⁻⁶ cm/s)
Kindly answer with a numeric value in ×10⁻⁶ cm/s, unit omitted.

# example entries with known answers
CC[C@H](C)[C@@H]1NC(=O)[C@@H]2CCCN2C(=O)[C@H]2CCCN2C(=O)[C@@H](Cc2ccccc2)NC(=O)[C@@H](CC(C)C)N(C)C(=O)[C@H](C(C)C)NC(=O)[C@@H](CC(C)C)NC(=O)[C@@H]2CCCN2C(=O)[C@H]2CCCN2C(=O)[C@@H](C)N(C)C(=O)[C@H](C(C)C)N(C)C1=O [Design D11.21, PI*V*apPlV*lfp] (cyclo(I[NMeV][dNMeA][dP]P[dL]V[dNMeL][dF][dP]P))
0.206
CC[C@H](C)[C@@H]1NC(=O)[C@@H](C(C)C)NC(=O)[C@@H]2CCCN2C(=O)[C@@H](CC(C)C)N(C)C(=O)[C@@H](C(C)C)NC(=O)[C@H](CC(C)C)N(C)C(=O)[C@H]2CCCN2C(=O)[C@@H](C)NC(=O)[C@H](Cc2ccccc2)N(C)C(=O)[C@H]2CCCN2C1=O [Design D10.3., Ip*Fap*Lv*lPv] (cyclo(I[dP][NMeF][dA][dP][NMeL][dV][dNMeL]P[dV]))
2.52

Next:
**Query** Query: Papp; subject: CC[C@H](C)[C@@H]1NC(=O)[C@@H](C)NC(=O)[C@@H]2CCCN2C(=O)[C@H]2CCCN2C(=O)[C@@H]2CCCN2C(=O)[C@@H](C)NC(=O)[C@@H](Cc2ccccc2)NC(=O)[C@@H](CC(C)C)N(C)C(=O)[C@@H](CC(C)C)N(C)C1=O [Design D9.15, PpPaI*l*lfa] (cyclo([dA]I[dNMeL][dNMeL][dF][dA]P[dP]P))
**Result** 0.341
